- System: CCRIS mutagenicity, Ames/micronucleus/aberration tests
- procedure.summary: CCRIS mutagenicity studies
- assay.context: Test System: AMES SALMONELLA TYPHIMURIUM; Strain/Indicator: TA98; Metabolic Activation: NONE; Method: PREINCUBATION
Active and inactive are the calls of the source. No rule for the calls is given here.
Just give me one of these, please: active, inactive

Input: What was the test verdict on O=NN1CCSC1C(O)C(O)C(O)C(O)CO (centres undefined) ?
Output: inactive

Input: Dear all, I need the recorded test outcome for CC(COc1ccccc1)N(CCCl)Cc1ccccc1 (centres undefined) , thank you.
Output: active

Input: So what was the verdict on Cc1cc([N+](=O)[O-])cc2ccccc12 in this test?
Output: active

Input: For COC1=C(OC)C(=O)C(C)=CC1=O , which call appears in the assay record?
Output: inactive

Input: Give the logged outcome of this assay for the following molecule: Clc1ccc(C(Cl)(Cl)Cl)c(Cl)c1
Output: inactive

Input: Look up the recorded call for O=C1c2ccccc2C(=O)c2c(O)cc(O)cc21 in this test.
Output: inactive

Input: Which outcome did this test record for the molecule CCSc1cc(Cc2ccc(N)c(SCC)c2)ccc1N ?
Output: inactive

Input: Outcome logged for Oc1cc(Cl)ccc1Cl in this assay:
Output: inactive

Input: Please indicate how the test categorized [Cl][Pt-2]([Cl])([Cl])[Cl] .
Output: active

Input: Hi team, can someone confirm the assay call for O.O.O.O.O.O.O=[N+]([O-])O.O=[N+]([O-])O.[Zn] ?
Output: inactive

Input: // outcome(item) with item = c1ccc(Nc2ccc(Nc3ccccc3)cc2)cc1
Output: inactive

Input: Give the logged outcome of this assay for the following molecule: O=C(O)c1ccccc1-c1c2ccc(=O)cc-2oc2cc(O)ccc12
Output: inactive

Input: Look up the recorded call for CCCCO[C@@H](CC)CO in this test.
Output: inactive

Input: What did this assay record as the result for Cc1cc2ccccc2c2ccc3ccccc3c12 ?
Output: inactive

Input: What call does the record list for O=C(O)c1c(Cl)cccc1Cl ?
Output: inactive

Input: Please indicate how the test categorized Nc1ncn[nH]1 .
Output: inactive

Input: Per the records of this test, what outcome belongs to CC(=O)OO ?
Output: inactive

Input: Please share the test call associated with O=C(O)CN(CCN(CC(=O)O)CC(=O)O)CC(=O)O .
Output: inactive

Input: Identify the outcome logged in this assay for the molecule shown: O=[N+]([O-])c1ccc2c(c1)Oc1cc([N+](=O)[O-])ccc1O2
Output: active

Input: What did the test return for Clc1cccc(-c2ccc(Cl)c(Cl)c2Cl)c1Cl ?
Output: inactive

Input: Returns: the outcome recorded for CCCCC(CC)COC(=O)C(C#N)=C(c1ccccc1)c1ccccc1 (centres undefined) in this assay.
Output: inactive

Input: For O=C(Nc1ccc(Cl)cc1)Nc1ccc(Cl)c(Cl)c1 , which call appears in the assay record?
Output: inactive

Input: Field: outcome | Entry: Nc1ncnc2c1ncn2-c1ccc([N+](=O)[O-])cc1[N+](=O)[O-]
Output: inactive

Input: Would you mind telling me which call this test gave OCCCBr ?
Output: inactive

###

- Tested on: CCRIS mutagenicity, Ames/micronucleus/aberration tests
- procedure.summary: CCRIS mutagenicity studies
- assay.context: Test System: AMES SALMONELLA TYPHIMURIUM; Strain/Indicator: TA98; Metabolic Activation: NONE; Method: STANDARD PLATE
The source made the active and inactive calls. No rule for the calls is given here.
Select the matching outcome among active, inactive

Input: Recorded call for CCCCCCCCCCCCCc1ccccc1 ?
Output: inactive

Input: For CC(C)=CCC1=C(O)c2ccccc2C(=O)C1=O , what call appears in the results of this test?
Output: inactive

Input: For CN(C)CC/C=C1\c2ccccc2COc2ccccc21 , which call appears in the assay record?
Output: inactive

Input: Hello, I am checking results. What call was entered for Cc1ccc(N)c(S(=O)(=O)O)c1 ?
Output: inactive

Input: Returns: the outcome recorded for O=C1c2c(O)ccc(O)c2C(=O)c2c(NCCNCCO)ccc(NCCNCCO)c21 in this assay.
Output: active

Input: I'd appreciate the recorded outcome for CC/C=C/C=C/C=C/C=C/C=O from this test.
Output: inactive

Input: Write down the call the test reported for this compound. Item: CC(Cl)c1ccccc1 (stereo not drawn)
Output: inactive

Input: Field: outcome | Entry: Nc1ccc(Cc2ccc(N)cc2)cc1
Output: inactive

Input: Which outcome did this test record for the compound CC1(C)CC(N)CC(C)(C)N1[O] ?
Output: active

Input: # outcome recorded in this test, key = O=C1c2ccccc2C(=O)N1SC(Cl)(Cl)Cl
Output: inactive

Input: What is the recorded call for this compound in the test? c1ccc(Nc2ccc(Nc3ccccc3)cc2)cc1
Output: inactive

Input: Status in this test for C#C[C@]1(O)CC[C@H]2[C@@H]3CCc4cc(OC)ccc4[C@H]3CC[C@@]21C ?
Output: inactive

Input: What did this assay record as the result for O=NN1CCCCC1 ?
Output: inactive

Input: Recorded call for C1=CC2=C3OC3=C3c4ccc5ccccc5c4CC(=C1)C23 (stereo not drawn) ?
Output: active

Input: Could you check what this test reported for CC1(C)C(C(=O)OC(C#N)c2cccc(Oc3ccccc3)c2)C1(C)C (stereo not drawn) ?
Output: inactive

Input: // param item: C1O[C@@H]1[C@@H]1CO1 ; yields the recorded call
Output: inactive

Input: Query: recorded result category for O=S(O)(O)=S in this test
Output: inactive

Input: Entry O=[N+]([O-])c1cc2ccc3cccc4ccc(c1O)c2c34 : call = ?
Output: active
